Data provenance: patent US5283361A

Inhibition of 5-LO In Vivo Percent Inhibition at 30 mg/kg, po, 2 hr. by entry:
# Test system: 5-LO
# RUN_DESCRIPTION: In vivo ovalbumin-induced increase in intratracheal pressure in passively sensitized guinea pigs (Inhibition of 5-LO)
# Design: species or system guinea pig
# STATED_CONDITIONS: 30 mg/kg, OA-induced increase in tracheal pressure
Reply numerically in %, unit not repeated.

CHEMICAL_STRUCTURE: NC(=O)N(O)C/C=C/c1ccccc1Sc1ccc(Cl)cc1
UNIT_INFO: %
MEASURED: 95
//
CHEMICAL_STRUCTURE: NC(=O)N(O)C/C=C/c1ccccc1Sc1ccc(F)cc1
UNIT_INFO: %
MEASURED: 96
//
CHEMICAL_STRUCTURE: NC(=O)N(O)C/C=C/c1cccc(F)c1Sc1ccc(F)cc1
UNIT_INFO: %
MEASURED: 81
//
CHEMICAL_STRUCTURE: NC(=O)N(O)C/C=C/c1c(F)cccc1Sc1ccc(Cl)cc1
UNIT_INFO: %
MEASURED: 46
//
CHEMICAL_STRUCTURE: NC(=O)N(O)C/C=C/c1cc(F)ccc1Sc1ccc(F)cc1
UNIT_INFO: %
MEASURED: 52

Ask | I would be grateful if you could share the reported Inhibition of 5-LO In Vivo Percent Inhibition at 30 mg/kg, po, 2 hr. for "NC(=O)N(O)C/C=C/c1c(F)cccc1Sc1ccc(F)cc1" .
Reply | 97
